Tested on: CAOV3
procedure details: Primary qHTS to identify gynecologic anti-cancer compounds using libraries of approved drugs and bioactive compounds (AID 1345084); further: nearly all actives have a fitted effect of over 55% in size
particulars: Gynecologic cancer cell panel viability, ATPlite luminescence, 48 h; series mostly up to 57.5 µM
Results filed as inconclusive are left out. The source made the active and inactive calls. The call rests on the fitted dose curve; in most records, active means well fitted cell-killing curve with a large enough effect; inconclusive means small, poorly fitted or top-dose-only effect, or effect the other way; inactive means flat fitted curve, though single readings scatter.
Your response should consist of one outcome taken from Y = active, N = inactive

*Q* For "Nc1nc2c(c(=O)[nH]1)C[C@@H](CCc1ccc(C(=O)N[C@@H](CCC(=O)O)C(=O)O)cc1)CN2" , which call appears in the assay record?
*A* N

*Q* For C/C=C/C(O)C1OC(=O)CC1Nc1ccc(C(=O)O)cc1 (stereo not drawn) , which call appears in the assay record?
*A* N

*Q* For "CC(C)(C)C(=O)CN1C(=O)[C@H](NC(=O)Nc2cccc(C(=O)O)c2)CN(C2CCCCC2)c2ccccc21" , which call appears in the assay record?
*A* N

*Q* For "COc1c(/C=C/C(C)(C)O)ccc2c1C(=O)OCc1cc(C)cc(O)c1O2" , which call appears in the assay record?
*A* N

*Q* For COC(=O)C[C@H]1C(C)(C)[C@H](OC(=O)C(C)C)[C@@]2(O)C(=O)[C@]1(C)C1CC[C@]3(C)C(CC(=O)O[C@H]3c3ccoc3)[C@]13O[C@@H]32 (stereo partly drawn) , which call appears in the assay record?
*A* N

*Q* For C=C[C@]1(C)C=C2CCC3C(C)(CCC[C@@]3(C)C(=O)O)C2CC1 (stereo partly drawn) , which call appears in the assay record?
*A* N

*Q* For "CC(=O)O[C@@H]1c2c(C)coc2C(=O)[C@@]23O[C@@H]2CC[C@H](C)[C@@]13C" , which call appears in the assay record?
*A* N

*Q* For "CS(=O)(=O)c1ccc(-c2nnc(/C=C/c3nnc(-c4ccc(C#N)cc4)o3)n2-c2ccccc2Cl)nc1" , which call appears in the assay record?
*A* N

*Q* For CC(=O)CC1CCC(C(C)C(=O)OCC(O)CO)O1 (stereo not drawn) , which call appears in the assay record?
*A* N

*Q* For COc1c2c(cc3c1-c1c(cc4c(c1OC)OCO4)CC(C)C(C)C3)OCO2 (stereo not drawn) , which call appears in the assay record?
*A* N

*Q* For "Cc1cc(-c2cc(O)ccc2Cl)cc2nnc(Nc3ccc(OCCN4CCCC4)cc3)nc12" , which call appears in the assay record?
*A* Y

*Q* For CC1(C)CC[C@]2(C(=O)O[C@@H]3O[C@H](CO)[C@@H](O)[C@H](O)[C@H]3O)CC[C@]3(C)C(=CCC4[C@@]5(C)C[C@@H](O)[C@H](O)[C@](C)(C=O)C5CC[C@]43C)[C@@H]2[C@@H]1O (stereo partly drawn) , which call appears in the assay record?
*A* N

*Q* For "CCc1cc(CN2CC(C(=O)O)C2)sc1-c1noc(-c2ccc(Oc3ccccc3)cc2)n1" , which call appears in the assay record?
*A* N

*Q* For "CC(=O)c1cc2c(cc1O)OC(C)(C)C=C2" , which call appears in the assay record?
*A* N

*Q* For "COc1ncc2cc(C(=O)Nc3cc(C(=O)NCc4cccc(Cl)c4)ccc3Cl)c(=O)[nH]c2n1" , which call appears in the assay record?
*A* N

*Q* For "O=C(Nc1ccc(S(=O)(=O)Nc2nccs2)cc1)C(c1ccccc1)c1ccccc1" , which call appears in the assay record?
*A* N

*Q* For "CN1CCN(C(=O)c2ccc3cc(CCNc4ncnc5ccc(C#N)cc45)ccc3c2)CC1" , which call appears in the assay record?
*A* N

*Q* For "COc1cc2c3c(cc4ccccc4c3c1O)NC2=O" , which call appears in the assay record?
*A* N
